Study system: UniProt Q99500
Assay explanation: Intracellular Ca2+ mobilization in CHO cells expressing human S1P receptors (hS1P3)
Study conditions: read-out: S1P3 (EC50 class, intracellular Ca2+ mobilization)
pEC50: −log10 of the molar value.
Value type: pEC50

According to the records, this compound NC(CCCc1ccc(Sc2cccc(OCc3ccccc3)c2)cc1Cl)CCP(=O)(O)O (stereo not shown) displays pEC50 of ≤ 6.00

According to the records, this compound CCCC(N)(CCCc1ccc(Sc2cccc(OCc3ccccc3)c2)cc1Cl)CCP(=O)(O)O (stereo not shown) displays pEC50 of 6.00 to 7.00

----------
Each entry below carries its reported melting point.

According to the records, this molecule NC(CO)(CCc1ccc(Sc2cccc(OCc3ccccc3)c2)cc1Cl)CCP(=O)(O)O (centres unmarked) displays melting point of 205 to 208 °C

----------
Each entry below carries its reported melting point.

Field: example entries. Status: answers known.
{"Compound": "NC(/C=C/P(=O)(O)O)(CO)CCCCc1ccc(Sc2cccc(OCc3ccccc3)c2)cc1Cl (stereo not shown) [Example 290]", "melting point": "258 to 260 °C"}
{"Compound": "NC(CO)(CCCc1ccc(Sc2cccc(OCc3ccccc3)c2)cc1Cl)CCP(=O)(O)O (stereo not shown) [Example 265]", "melting point": "193 to 196 °C"}
{"Compound": "NC(/C=C(/F)P(=O)(O)O)CCc1ccc(Sc2cccc(OCc3ccccc3)c2)cc1Cl (stereo not shown) [Example 253]", "melting point": "285 to 288 °C"}

According to the records, this compound NC(CO)(CCCCc1ccc(Sc2cccc(OCc3ccccc3)c2)cc1Cl)CCP(=O)(O)O (stereo not shown) [Example 289] displays melting point of 180 to 183 °C

----------
Study system: hS1P3 receptors (Homo sapiens)
Sequence (Q99500 whole entry): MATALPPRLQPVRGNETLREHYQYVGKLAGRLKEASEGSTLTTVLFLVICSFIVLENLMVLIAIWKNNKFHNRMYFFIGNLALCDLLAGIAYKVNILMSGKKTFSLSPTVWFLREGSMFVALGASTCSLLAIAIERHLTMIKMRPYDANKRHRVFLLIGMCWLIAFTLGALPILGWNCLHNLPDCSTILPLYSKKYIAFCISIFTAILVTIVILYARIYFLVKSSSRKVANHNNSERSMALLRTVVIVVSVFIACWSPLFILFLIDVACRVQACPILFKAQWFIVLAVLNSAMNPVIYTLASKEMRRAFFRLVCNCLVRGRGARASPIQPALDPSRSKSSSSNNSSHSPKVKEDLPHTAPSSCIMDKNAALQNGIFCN
Assay explanation: Intracellular Ca2+ mobilization in CHO cells expressing human S1P receptors (hS1P3)
Study conditions: read-out: S1P3 (EC50 class, intracellular Ca2+ mobilization)
Counter-ions that a name gives are not always drawn.
Each entry below carries its reported EC50.

Field: example entries. Status: answers known.
{"Compound": "CC(N)(CCCc1ccc(Sc2cccc(OCc3ccccc3)c2)cc1Cl)COP(=O)(O)O (single isomer, unassigned; (+)) [Example 239]", "Study system": "hS1P3 receptors (Homo sapiens)", "Val": "< 10 nM"}
{"Compound": "CCCC(N)(/C=C/P(=O)(OC)OC)CCCc1ccc(Sc2cccc(OCc3ccccc3)c2)cc1Cl (centres unmarked) [Example 280, hydrochloride]", "Study system": "hS1P3 receptors (Homo sapiens)", "Val": "100 to 1000 nM"}
{"Compound": "CC(N)(CCCc1ccc(Sc2cccc(OCc3ccccc3)c2)cc1Cl)COP(=O)(O)O (single isomer, unassigned; (-)) [Example 240]", "Study system": "hS1P3 receptors (Homo sapiens)", "Val": "100 to 1000 nM"}
{"Compound": "NC(/C=C/P(=O)(O)O)CCCc1ccc(Sc2cccc(OCc3ccccc3)c2)cc1Cl (centres unmarked) [Example 242]", "Study system": "hS1P3 receptors (Homo sapiens)", "Val": "≥ 1000 nM"}
{"Compound": "NC(CO)(CCCc1ccc(Sc2cccc(OCc3ccccc3)c2)cc1Cl)CCP(=O)(O)O (centres unmarked) [Example 265]", "Study system": "hS1P3 receptors (Homo sapiens)", "Val": "100 to 1000 nM"}

According to the records, this compound CC(N)(/C=C/P(=O)(O)O)CCCc1ccc(Sc2cccc(OCc3ccccc3)c2)cc1Cl (racemic) [Example 261] displays EC50 of ≥ 1000 nM

According to the records, this compound CC(N)(CCCc1ccc(Sc2cccc(OCc3ccccc3)c2)cc1Cl)CCP(=O)(O)O (centres unmarked) [Example 260] displays EC50 of 100 to 1000 nM

According to the records, this compound NC(CO)(CCCc1ccc(Sc2cccc(C(F)(F)F)c2)cc1Cl)COP(=O)(O)O (centres unmarked) [Example 299] displays EC50 of ≥ 1000 nM

According to the records, this compound NC(CO)(CCCc1ccc(Sc2cccc(O)c2)cc1Cl)COP(=O)(O)O (centres unmarked) [Example 238] displays EC50 of ≥ 1000 nM

According to the records, this compound NC(CO)(CCc1ccc(Sc2cccc(OCc3ccccc3)c2)cc1Cl)CCP(=O)(O)O (centres unmarked) [Example 269] displays EC50 of ≥ 1000 nM

According to the records, this compound Cl.NC(CO)(CCCc1ccc(Sc2cccc(OCc3ccccc3)c2)cc1Cl)CP(=O)(O)O (centres unmarked) [Example 286, hydrochloride] displays EC50 of ≥ 1000 nM

Values from patent US7759326B2
